test system: MC-38; assay: Antitumor activity against mouse MC38 cells expressing human PD-L1 protein assessed as reduction in cell viability measured after 48 hrs by CCK-8 assay; type: functional, cell-based; details: MC-38, 48 h
pIC50: −log10 of the molar value.
Entries and their pIC50

[
  {
    "smilesCode": "N#Cc1cccc(COc2cc(OCc3cccc(-c4ccccc4F)c3Cl)ccc2CNCC(=O)O)c1",
    "pIC50": "< 5.10"
  },
  {
    "smilesCode": "N#Cc1cncc(COc2cc(OCc3cccc(-c4ccccc4F)c3Cl)ccc2CNCCO)c1",
    "pIC50": "< 5.10"
  }
]

* * *

test: AUC (0 to infinity) in Sprague-Dawley rat at 10 mg/kg, ip measured upto 48 hrs by LC-MS/MS analysis; assay type: ADME, organism-based; design: time < 48 hrs, dose 10 mg/kg, route ip; conditions: in vivo
Entries and their AUC(0-inf)

[
  {
    "smilesCode": "N#Cc1cccc(COc2cc(OCc3cccc(-c4ccccc4F)c3Cl)ccc2CNCC(=O)O)c1",
    "valueUnit": "ng·h/mL",
    "AUC(0-inf)": 2160
  },
  {
    "smilesCode": "N#Cc1cncc(COc2cc(OCc3cccc(-c4ccccc4F)c3Cl)ccc2CNCCO)c1",
    "valueUnit": "ng·h/mL",
    "AUC(0-inf)": 10500
  }
]

Origin of measurements: ChEMBL document CHEMBL5360625
